Entries and their measured TGI follow.
# Test system: UACC-62 melanoma
# Test Summary: NCI tumour cell line growth inhibition, 48 h

# count of solved cases: 8
{"Molecule": "COC(=O)C1C(O)CCC2CN3CCc4c([nH]c5ccccc45)C3CC21 (centres undefined)", "TGI": "> 100 µM"}
{"Molecule": "CCOC(=O)C(Cc1c[nH]c2c(N(CCO)CCO)cccc12)(NC(C)=O)C(=O)OCC", "TGI": "> 1000 µM"}
{"Molecule": "Cc1nc(N)nc2c1CCC(O)S2 (centres undefined)", "TGI": "25.8 µM"}
{"Molecule": "COC(=O)c1cc2c3ccccc3n3c(=O)c4cc5ccc(N(S(=O)(=O)c6ccc(C)cc6)S(=O)(=O)c6ccc(C)cc6)cc5nc4c(n1)c23", "TGI": "> 100 µM"}
{"Molecule": "CCOC(=O)C1=C(Nc2ccc(Cl)cc2Cl)OCC1=O", "TGI": "> 100 µM"}
{"Molecule": "Cn1c2ccccc2c2c3c(c4c5ccccc5n(C)c4c21)C(=O)NC3=O", "TGI": "> 89.6 µM"}
{"Molecule": "CN(C)c1ccc(C=NCC2CCCN3CCCCC23)cc1 (centres undefined)", "TGI": "> 100 µM"}
{"Molecule": "CN(C)CCNC(=O)c1ccc(NCCCN(C)CCCNc2ccc(C(=O)NCCN(C)C)c3[nH]c4ccccc4c(=O)c23)c2c(=O)c3ccccc3[nH]c12", "TGI": "0.353 µM"}

Here is another molecule to look at.
# lookup: TGI of COc1ccc(C(=O)O[C@H]2[C@@H]3C=CO[C@@H](OC4OC(CO)C(O)C(O)C4O)[C@@H]3[C@@]3(CO)O[C@@H]23)cc1O (some centres undefined)
> 100 µM

* * *

# Tested on: MDA-MB-231 breast
# Test Summary: NCI tumour cell line growth inhibition, 48 h; in the data active = GI50 below about 0.43 µM; inactive = the rest
Your reply should match one of these outcome classes. yes (1) for active, no (0) for inactive

{"Compound": "O=[N+]([O-])c1cc(Cl)c2[nH]c3c(Cl)cc([N+](=O)[O-])cc3c2c1", "Assay System": "MDA-MB-231 breast", "Label Class": "no (0)"}
{"Compound": "O=C(/C=C/C12c3ccccc3C(c3ccccc31)C1C(=O)NC(=O)C12)c1ccc(Cl)cc1Cl (stereo unspecified)", "Assay System": "MDA-MB-231 breast", "Label Class": "no (0)"}
{"Compound": "COc1ccc2c(=O)cc(-c3ccccc3)[nH]c2c1", "Assay System": "MDA-MB-231 breast", "Label Class": "no (0)"}
{"Compound": "CCOC(=O)C(Cc1c[nH]c2c(N(CCO)CCO)cccc12)(NC(C)=O)C(=O)OCC", "Assay System": "MDA-MB-231 breast", "Label Class": "no (0)"}
{"Compound": "Cc1nc(N)nc2c1CCC(O)S2 (stereo unspecified)", "Assay System": "MDA-MB-231 breast", "Label Class": "no (0)"}
{"Compound": "CN(CCCCCl)P(=O)(OCCS(=O)(=O)CC(NC(=O)CCC(N)C(=O)O)C(=O)NC(C(=O)O)c1ccccc1)OCC1OC(n2ccc(N)nc2=O)C(F)(F)C1O (stereo unspecified)", "Assay System": "MDA-MB-231 breast", "Label Class": "no (0)"}
{"Compound": "COc1ccc(-c2cs/c(=N\\N=C\\c3ccc(O)cc3O)n2/N=C/c2ccc(O)cc2O)cc1", "Assay System": "MDA-MB-231 breast", "Label Class": "no (0)"}
{"Compound": "COc1cc2c(c(OC)c1OC)-c1ncc3c(OC)c(OC)c(OC)cc3c1C2", "Assay System": "MDA-MB-231 breast", "Label Class": "no (0)"}

Please indicate how the test categorized "COc1cc(F)c(F)c(Nc2ccc(I)cc2F)c1NS(=O)(=O)C1(C[C@H](O)CO)CC1" .
yes (1)

Please indicate how the test categorized CC(=O)c1ccc2c(c1)C1C=CCC1[C@H](c1cc3c(cc1Br)OCO3)N2 (stereo partly specified) .
no (0)

Please indicate how the test categorized "Cn1c(C(=O)c2ccncc2)cc2ccccc21" .
no (0)

* * *

Entries and their measured TGI follow.
# System: SF-295 CNS
# Test Summary: NCI tumour cell line growth inhibition, 48 h

# count of solved cases: 5
{"Compound": "O=C1c2ccccc2-[n+]2ccc3c([nH]c4ccccc43)c21", "Assay System": "SF-295 CNS", "TGI": "1.04 µM"}
{"Compound": "COC(=O)c1ccc(/C=C2\\Oc3ccccc3C2=O)cc1", "Assay System": "SF-295 CNS", "TGI": "> 100 µM"}
{"Compound": "[N-]=[N+]=NC(c1cn(C2CC(O)C(CO)O2)c(=O)[nH]c1=O)C(Br)Br (stereo not given)", "Assay System": "SF-295 CNS", "TGI": "> 100 µM"}
{"Compound": "CN(CCCCCl)P(=O)(OCCS(=O)(=O)CC(NC(=O)CCC(N)C(=O)O)C(=O)NC(C(=O)O)c1ccccc1)OCC1OC(n2ccc(N)nc2=O)C(F)(F)C1O (stereo not given)", "Assay System": "SF-295 CNS", "TGI": "2.71 µM"}
{"Compound": "COc1ccc(-c2cs/c(=N\\N=C\\c3ccc(O)cc3O)n2/N=C/c2ccc(O)cc2O)cc1", "Assay System": "SF-295 CNS", "TGI": "3.33 µM"}

Here is another compound to look at.
# lookup: TGI of CCC1(N=[N+]=[N-])C(=O)c2ccccc2N(C)C1=O (stereo not given)
> 100 µM

* * *

# Test system: ACHN renal
# Test Summary: NCI tumour cell line growth inhibition, 48 h; in the data active = GI50 below about 0.43 µM; inactive = the rest
Your reply should match one of these outcome classes. T = active, F = inactive

Some entries whose results are on file:
{"Compound": "Cc1nn[n-]n1.N.N.N.N.N.[Cl-].[Co+3]", "Label Class": "F"}
{"Compound": "COc1cc(F)c(F)c(Nc2ccc(I)cc2F)c1NS(=O)(=O)C1(C[C@H](O)CO)CC1", "Label Class": "F"}
{"Compound": "CC(=O)c1ccc2c(c1)C1C=CCC1[C@H](c1cc3c(cc1Br)OCO3)N2 (some centres undefined)", "Label Class": "F"}

Please indicate how the test categorized "O=C(Nc1cc(C(F)(F)F)ccc1Cl)c1ccc(NC2=C(Cl)C(=O)N(Cc3ccccc3)C2=O)cc1" .
F

Please indicate how the test categorized "O=C(O)c1ccc(NCn2nc(-c3ccccc3O)oc2=S)cc1" .
F

Please indicate how the test categorized "CCOC(=O)c1[nH]c(Br)c(-c2ccc(OC)c(OC)c2)c1Br" .
T

Please indicate how the test categorized "COc1ccc(NC(=O)CSC2=C(Nc3cccc(Br)c3)C(=O)N(Cc3ccccc3)C2=O)cc1Cl" .
F

Please indicate how the test categorized COC(=O)C1C(O)CCC2CN3CCc4c([nH]c5ccccc45)C3CC21 (centres undefined) .
F

Please indicate how the test categorized "CCCCCCCCOC(=O)CC[C@@H](C)[C@H]1CC[C@H]2[C@@H]3[C@H](OC(=O)CCN)C[C@@H]4C[C@H](OC(=O)CCN)CC[C@]4(C)[C@H]3C[C@H](OC(=O)CCN)[C@]12C" .
F

Please indicate how the test categorized O=C(/C=C/C12c3ccccc3C(c3ccccc31)C1C(=O)NC(=O)C12)c1ccc(Cl)cc1Cl (centres undefined) .
F

Please indicate how the test categorized "CC(=O)c1c(C)nc(SSc2nc(C)c(C(C)=O)c(-c3ccc(Cl)cc3)c2C#N)c(C#N)c1-c1ccc(Cl)cc1" .
F

Please indicate how the test categorized CCCCCCCCCCCCCCCCCC1=NC(C)(C)CN1CC(C)O (centres undefined) .
F

Please indicate how the test categorized "COc1ccc2cc(/C=C/C(=O)c3ccc(Cl)cc3Cl)ccc2c1" .
F

Please indicate how the test categorized "COc1ccc2c(=O)cc(-c3ccccc3)[nH]c2c1" .
F

* * *

# System: SN12C renal
# Test Summary: NCI tumour cell line growth inhibition, 48 h
Reported Metric: TGI

{"Compound": "O=C1CC2CC3OC3[C@H]3c4cc5c(cc4C(=O)N1C23)OCO5 (some centres undefined)", "Assay System": "SN12C renal", "TGI": "> 100 µM"}
{"Compound": "O=C1/C(=C\\c2cccc(Oc3ccccc3)c2)SC(c2ccccc2)N1c1ccccc1 (centres undefined)", "Assay System": "SN12C renal", "TGI": "> 100 µM"}

# lookup: TGI of CN(C(=O)C12C3C4C5C3C1(C(=O)C13C6C7C8C6C1C8C73)C5C42)C(C)(C)C (centres undefined)
> 50 µM

# lookup: TGI of "Cc1ccc(NC(=O)CCc2nc(N)nc(N)c2-c2ccccc2)cc1C"
> 100 µM

# lookup: TGI of "COc1ccccc1C#Cc1ccccc1C#CCCCCO"
34.5 µM

# lookup: TGI of "O=C1c2ccccc2-[n+]2ccc3c([nH]c4ccccc43)c21"
0.687 µM

# lookup: TGI of "COc1cc(OC)c(C(=O)/C=C/c2cc3c(cc2OCc2ccccc2)OC(C)(C)CC3)cc1CC=C(C)C"
> 25 µM

# lookup: TGI of "Cc1[nH]nc(C(F)(F)F)c1N=NN(C)C"
30.1 µM

# lookup: TGI of CC1=C[C@H]2c3c([nH]c4ccccc34)C(c3c[nH]c4ccccc34)[C@H]2CC1 (some centres undefined)
12.9 µM

# lookup: TGI of "O=C(/C=C/c1cccc(Oc2ccccc2)c1)NCc1ccc(C(=O)NCc2ccccc2)cc1"
> 100 µM

# lookup: TGI of "COc1ccc(OC)c(NC(=O)CCC/C(CC(=O)c2ccc(O)c(OC)c2)=N\Nc2nnc(C)n2N)c1"
> 100 µM

# lookup: TGI of COC(=O)C1Cc2cc3c(cc2C1=O)CCCC3 (centres undefined)
> 100 µM

# lookup: TGI of CCC1CC2C(=O)N(c3ccccc3)C(=O)C2c2[nH]c3ccccc3c21 (centres undefined)
71.1 µM

# lookup: TGI of "O=[N+]([O-])c1ccc2c(c1)N([O-])C1(CCCCC1)[N+]2=O"
35.1 µM

# lookup: TGI of "COc1ccc(-n2c(N)c(C#N)[nH]c2=O)cc1"
> 10 µM

# lookup: TGI of "CS(=O)(=O)CCNCc1cc(-c2cc3c(Nc4ccc(OCc5cccc(F)c5)c(Cl)c4)ncnc3s2)cs1"
> 25 µM

# lookup: TGI of "C#C/C=C\CCCC/C=C\C#CC#CCCCC#CC#C[C@H](COS(=O)(=O)O)OS(=O)(=O)O"
> 100 µM

# lookup: TGI of "CCOC(=O)c1[nH]c(-c2[nH]c(-c3[nH]c(-c4[nH]c(C(=O)OCC)c(C)c4C(=O)OCC)c(C(=O)OCC)c3C)c(C)c2C(=O)OCC)c(C(=O)OCC)c1C"
> 100 µM
